Reference for the values: ChEMBL document CHEMBL4229459

- experiment notes: AUC (0 to 6 hrs) in C57BL/6J mouse at 25 mg/kg, ip
- Format: ADME, organism-based
- Parameters: dose 25 mg/kg, time < 6 hr, route intraperitoneal
- test conditions: in vivo
Residues, ends and D or L forms follow the SMILES beside them.
What AUC(0-t) at 6 h was measured for each of the following?
Give the value, in units of ng·h/mL, as a plain number.

Prompt: What value of measured AUC(0-t) at 6 h is listed for CC[C@H](C)[C@@H]1NC(=O)[C@@H](CC(C)C)NC(=O)[C@H](CC(C)C)NC(=O)[C@H](Cc2c[nH]c3ccccc23)NC(=O)[C@@H](CCCNC(=N)N)NC(=O)[C@H](CC(N)=O)NC1=O (HELM PEPTIDE1{I.N.[dR].W.L.[dL]}$PEPTIDE1,PEPTIDE1,1:R1-6:R2$$$V2.0) ?
Completion: 14700

Prompt: What value of measured AUC(0-t) at 6 h is listed for CC[C@H](C)[C@@H]1NC(=O)[C@@H](CC(C)C)NC(=O)[C@H](CC(C)C)NC(=O)[C@H](Cc2c[nH]c3ccccc23)NC(=O)[C@@H](CCCN)NC(=O)[C@H](CC(N)=O)NC1=O ?
Completion: 26600

---

- experiment notes: AUC (0 to 6 hrs) in C57BL/6J mouse at 5 mg/kg, ip
- Format: ADME, organism-based
- Parameters: dose 5 mg/kg, time < 6 hr, route intraperitoneal
- test conditions: in vivo
Residues, ends and D or L forms follow the SMILES beside them.
What AUC(0-t) at 6 h was measured for each of the following?
Give the value, in units of ng·h/mL, as a plain number.

Prompt: What value of measured AUC(0-t) at 6 h is listed for CC[C@H](C)[C@@H]1NC(=O)[C@@H](CC(C)C)NC(=O)[C@H](CC(C)C)NC(=O)[C@H](Cc2c[nH]c3ccccc23)NC(=O)[C@@H](CCCNC(=N)N)NC(=O)[C@H](CC(N)=O)NC1=O (HELM PEPTIDE1{I.N.[dR].W.L.[dL]}$PEPTIDE1,PEPTIDE1,1:R1-6:R2$$$V2.0) ?
Completion: 6290

Prompt: What value of measured AUC(0-t) at 6 h is listed for CC[C@H](C)[C@@H]1NC(=O)[C@@H](CC(C)C)NC(=O)[C@H](CC(C)C)NC(=O)[C@H](Cc2c[nH]c3ccccc23)NC(=O)[C@@H](CCCN)NC(=O)[C@H](CC(N)=O)NC1=O ?
Completion: 4780

---

- experiment notes: Kinetic aqueous solubility of the compound at pH 7.4 phosphate buffered saline after 1 hr by CLND method
- Assay type: physicochemical
- test conditions: read-out: Kinetic_solubility
Residues, ends and D or L forms follow the SMILES beside them.
measured endpoint: solubility kinetic at 1 h (µM)
Give the value, in units of µM, as a plain number.

Prompt: What value of measured solubility kinetic at 1 h is listed for CC(C)C[C@@H]1NC(=O)[C@H](Cc2c[nH]c3ccccc23)NC(=O)[C@@H](CCCN)NC(=O)[C@H](CC(N)=O)NC(=O)[C@H](C(C)C)NC(=O)[C@@H](CC(C)C)NC1=O (HELM PEPTIDE1{[NCCC[C@@H](N[*:1])C(=O)[*:2]].W.L.[dL].V.N}$PEPTIDE1,PEPTIDE1,1:R1-6:R2$$$V2.0) ?
Completion: 204

Prompt: What value of measured solubility kinetic at 1 h is listed for CC(C)C[C@@H]1NC(=O)[C@H](Cc2c[nH]c3ccccc23)NC(=O)[C@@H](CCCN)NC(=O)[C@H](CC(=O)N2CCC(Oc3ccc(OC(F)(F)F)cc3)CC2)NC(=O)[C@H](C(C)C)NC(=O)[C@@H](CC(C)C)NC1=O ?
Completion: 20
